# maps each entry to its pIC50
- target: UniProt Q9H2J7
- Sequence (Q9H2J7 whole entry): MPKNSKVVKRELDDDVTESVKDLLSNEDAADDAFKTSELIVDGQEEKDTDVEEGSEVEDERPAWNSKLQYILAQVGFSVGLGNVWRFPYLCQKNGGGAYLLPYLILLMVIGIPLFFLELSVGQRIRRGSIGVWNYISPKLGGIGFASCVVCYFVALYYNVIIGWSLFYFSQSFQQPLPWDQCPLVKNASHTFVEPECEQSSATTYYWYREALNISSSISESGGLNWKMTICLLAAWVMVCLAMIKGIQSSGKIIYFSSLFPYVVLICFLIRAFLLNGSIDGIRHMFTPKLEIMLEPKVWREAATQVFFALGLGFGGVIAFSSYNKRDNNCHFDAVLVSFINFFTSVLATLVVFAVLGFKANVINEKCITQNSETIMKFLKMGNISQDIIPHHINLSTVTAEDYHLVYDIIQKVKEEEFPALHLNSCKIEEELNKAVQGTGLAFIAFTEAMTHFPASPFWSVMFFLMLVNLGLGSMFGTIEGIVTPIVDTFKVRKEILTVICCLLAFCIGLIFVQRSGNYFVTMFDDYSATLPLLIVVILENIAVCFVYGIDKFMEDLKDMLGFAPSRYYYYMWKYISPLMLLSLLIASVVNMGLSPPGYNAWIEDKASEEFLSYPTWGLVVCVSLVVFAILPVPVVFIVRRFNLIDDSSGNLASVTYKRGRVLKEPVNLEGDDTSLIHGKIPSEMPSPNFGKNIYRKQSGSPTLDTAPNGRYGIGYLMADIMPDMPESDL
- assay_overview: Inhibition of eGFP-tagged human B0AT2 expressed in HEK293 cells measured within 10 mins by [3H]proline uptake assay
pIC50: −log10 of the molar value.
recorded_endpoint: pIC50

INSERT INTO assay_data (compound, target, recorded_endpoint, operator_symbol, experimental_value) VALUES
  ('CC(C)(C)OC(=O)N1CCC(=C2c3ccc(Cl)cc3CCc3cccnc32)CC1', 'UniProt Q9H2J7', 'pIC50', '<', 4.10),
  ('CC(C)[C@@H](N)C(=O)N1CCC(=C2c3ccc(Cl)cc3CCc3cccnc32)CC1', 'UniProt Q9H2J7', 'pIC50', '=', 4.41),
  ('CCOC(=O)N1CCC(=C2c3ccc(Cl)cc3CCc3ccc(C(=O)OC)nc32)CC1', 'UniProt Q9H2J7', 'pIC50', '=', 4.91),
  ('O=C(Cc1ccccc1)N1CCC(=C2c3ccc(Cl)cc3CCc3cccnc32)CC1', 'UniProt Q9H2J7', 'pIC50', '=', 4.79),
  ('CC(C)C(=O)N1CCC(=C2c3ccc(Cl)cc3CCc3cccnc32)CC1', 'UniProt Q9H2J7', 'pIC50', '=', 4.38),
  ('CCOC(=O)N1CCC(=C2c3ccc(Cl)cc3CCc3c(CO)ccnc32)CC1', 'UniProt Q9H2J7', 'pIC50', '=', 4.74),
  ('CCNC(=O)N1CCC(=C2c3ccc(Cl)cc3CCc3cccnc32)CC1', 'UniProt Q9H2J7', 'pIC50', '=', 4.46),
  ('O=C(OCc1ccccc1)N1CCC(=C2c3ccc(Cl)cc3CCc3cccnc32)CC1', 'UniProt Q9H2J7', 'pIC50', '<', 4.10),
  ('CCCCCC(=O)N1CCC(=C2c3ccc(Cl)cc3CCc3cccnc32)CC1', 'UniProt Q9H2J7', 'pIC50', '=', 5.28),
  ('Cc1cncc(CN2CCC(=C3c4ccc(Cl)cc4CCc4cccnc43)CC2)c1 [RUPATADINE]', 'UniProt Q9H2J7', 'pIC50', '<', 4.40),
  ('CCCS(=O)(=O)N1CCC(=C2c3ccc(Cl)cc3CCc3cccnc32)CC1', 'UniProt Q9H2J7', 'pIC50', '<', 4.10),
  ('O=C(Oc1ccccc1)N1CCC(=C2c3ccc(Cl)cc3CCc3cccnc32)CC1', 'UniProt Q9H2J7', 'pIC50', '<', 4.10),
  ('CC(=O)N1CCC(=C2c3ccc(Cl)cc3CCc3cccnc32)CC1 [SCH-37370]', 'UniProt Q9H2J7', 'pIC50', '=', 4.26),
  ('CN1CCC(=C2c3ccc(Cl)cc3CCc3cccnc32)CC1', 'UniProt Q9H2J7', 'pIC50', '<', 4.10),
  ('NCCC(=O)N1CCC(=C2c3ccc(Cl)cc3CCc3cccnc32)CC1', 'UniProt Q9H2J7', 'pIC50', '=', 4.73),
  ('CCOC(=O)N1CCC(=C2c3ccc(Cl)cc3CCc3cc(OC)cnc32)CC1', 'UniProt Q9H2J7', 'pIC50', '=', 5.35),
  ('COC(=O)N1CCC(=C2c3ccc(Cl)cc3CCc3cccnc32)CC1', 'UniProt Q9H2J7', 'pIC50', '=', 4.71),
  ('C=CCOC(=O)N1CCC(=C2c3ccc(Cl)cc3CCc3cccnc32)CC1', 'UniProt Q9H2J7', 'pIC50', '=', 5.31),
  ('CCOC(=O)N1CCC(=C2c3ccc(Cl)cc3CCc3ccc(C#N)nc32)CC1', 'UniProt Q9H2J7', 'pIC50', '<', 4.10),
  ('CCOC(=O)N1CC=C(C2c3ccc(Cl)cc3CCc3cccnc32)CC1 (stereo unspecified)', 'UniProt Q9H2J7', 'pIC50', '=', 4.83),
  ('CCCOC(=O)N1CCC(=C2c3ccc(Cl)cc3CCc3cccnc32)CC1', 'UniProt Q9H2J7', 'pIC50', '=', 5.34);

---

- target: Sodium-dependent neutral amino acid transporter B(0)AT2 (Homo sapiens, UniProt Q9H2J7)
- assay_overview: Inhibition of eGFP-tagged human B0AT2 expressed in HEK293 cells measured within 10 mins by [3H]proline uptake assay
pIC50: −log10 of the molar value.
recorded_endpoint: pIC50

INSERT INTO results (chemical_structure, operator_symbol, experimental_value) VALUES
  ('CCOC(=O)N1CCC(=C2c3ccc(Cl)cc3CCc3c(C#N)ccnc32)CC1', '<', 4.10),
  ('CC(C)COC(=O)N1CCC(=C2c3ccc(Cl)cc3CCc3cccnc32)CC1', '=', 5.11),
  ('COCC(=O)N1CCC(=C2c3ccc(Cl)cc3CCc3cccnc32)CC1', '=', 4.58),
  ('CC(C)OC(=O)N1CCC(=C2c3ccc(Cl)cc3CCc3cccnc32)CC1', '=', 4.77),
  ('CCOC(=O)N1CCC(=C2c3ccc(Cl)cc3CCc3ccc(CO)nc32)CC1', '<', 4.10);
